Source listed as PubChem BioAssay (NCI).

- assay info: NCI Yeast Anticancer Drug Screen. Data for the mlh1 rad18 strain (AID 175)
- conditions: S. cerevisiae mlh1 rad18 strain growth inhibition; at 50.0 µM; hits give high values
This is part of a sample that, as a whole, favours compounds with a hit. Of some 79,000 tested, about 15% had one in any assay. Where a SMILES comes first, the peptide text is derived from it. [ ]: non-standard residue; d: D form. The star is where a group is joined. ξ: configuration not given here. Cbz = O=C(OCc1ccccc1)*; ξT = CC(O)C(N)C(=O)O
Binary classification by growth inhibition, with 10% as an inclusive lower bound for yes; all other cases are no.

Examples from the recorded data:
CN(C)c1ccc(C2(c3ccc(N(C)C)cc3)OC(=O)c3cc(N(C)C)ccc32)cc1; yes
C1CCSCCCCSCCCCSCCCCSC1; yes
CC(=O)OC(C(=O)Nc1ccc(Br)cc1)c1ccccc1 (stereo unspecified); no
COc1ccc(C2=C(Cl)c3cc(OC)c(OC)cc3C2Cl)cc1OC (stereo unspecified); yes
CCOC(=O)CCC(NC(=O)C(CCC(=O)OCC)NC(=O)OCc1ccccc1)C(=O)O (stereo unspecified) (tested in a mixture with another compound) (Cbz-Glu(OEt)-Glu(OEt)-OH; configuration not given here); yes

## Input Please check the record CC(=O)Nc1ccc(S(=O)(=O)N/N=c2/sc3ccccc3n2C)cc1 and state if its growth inhibition is at or above 10%.
## Output no

## Input Reported growth inhibition at or above 10%? Cc1ccc(S(=O)(=O)OCC23CCC(CO)(CC2)CC3)cc1
## Output yes

## Input Say whether CCOc1ccc(N=C=S)cc1 shows growth inhibition of 10% or more.
## Output yes

## Input Check this molecule for growth inhibition at or above 10%: CN1C=CC(=Cc2ccccc2)C=C1
## Output no

## Input Has COCCNC(=O)C(C)O (stereo unspecified) a recorded growth inhibition greater than or equal to 10%?
## Output no

## Input Entry Cn1c(=O)c2c(nc(OCC[N+](C)(C)C)n2C)n(C)c1=O : is its growth inhibition no less than 10%?
## Output no

## Input Could you tell me if the measured growth inhibition of CCOC(=O)c1c[nH]c(C(=O)OCC)c1C reaches 10% or more?
## Output yes

## Input Does the molecule COc1ccccc1C1C2=C(COC2=O)Oc2cc3c(cc21)OCO3 (stereo unspecified) have recorded growth inhibition that is 10% or more?
## Output no

## Input Item O=c1sc2ncccc2n1-c1ccc([N+](=O)[O-])cn1 with growth inhibition of 10% or above?
## Output no

## Input Is it the case that CC(C)(C)SC(=S)SCC(=O)c1cc2ccccc2o1 has growth inhibition reaching or exceeding 10%?
## Output yes

## Input Kindly determine if growth inhibition recorded for CO/C(=N\N=C\c1cccc(Cl)c1)c1ccncc1 is above or exactly 10%.
## Output no

## Input Say whether Cc1ccc(CCOS(=O)(=O)c2ccc(C)cc2)cc1 shows growth inhibition of 10% or more.
## Output yes

## Input Record O=C1CC2(CCCc3sccc32)C(=O)N1 (stereo unspecified) ; criterion: growth inhibition no lower than 10%. Met?
## Output no

## Input Is growth inhibition at least 10%? Consider COC(=O)c1cc(C(=O)OC)c(CC(=O)C(=O)Nc2c(C(C)C)cccc2C(C)C)nc1CC(=O)C(=O)Nc1c(C(C)C)cccc1C(C)C
## Output no

## Input Does CC(O)C(NC(=O)CNC(=O)CNC(=O)OCc1ccccc1)C(=O)O (stereo not drawn) (Cbz-Gly-Gly-[ξT]-OH) have a reported growth inhibition of at least 10%?
## Output no

## Input For this molecule, is measured growth inhibition 10% or higher? Cc1cc(Oc2cnc(=O)[nH]c2)cs1
## Output yes

## Input Please check the record CC12CCC(C(Br)C1=O)C2(C)CBr (stereo unspecified) and state if its growth inhibition is at or above 10%.
## Output no

## Input Could you tell me if the measured growth inhibition of CCOc1cc[n+]([O-])cc1C reaches 10% or more?
## Output yes

## Input API: above_or_equal(metric=growth inhibition, cutoff=10%) for item Cc1ccc(S(=O)(=O)NNC(=O)Nc2cccc(C(F)(F)F)c2)cc1
## Output yes

## Input Is reported growth inhibition greater than or equal to 10% here: CC(c1ccccc1)C1(C)NC(=O)NC1=O (stereo unspecified)
## Output no
